test system: Escherichia coli; assay: Antibacterial activity against Escherichia coli assessed as reduction in microbial growth after 24 hrs by two-fold dilution method; type: functional

| Sample smiles | Value modifier | MIC [µg/mL] |
| --- | --- | --- |
| C[C@@]12CC[C@@](O)(CO)[C@@H](C1)[C@]1(C)C[C@@H](O)C[C@]21C | = | 4 |
| C[C@@]12CC=C(CO)[C@@H](C1)[C@]1(C)CCC[C@]21C | = | 64 |
| C[C@@]12CC[C@@](O)(CO)[C@@H](C1)[C@]1(C)CCC[C@]21C | = | 64 |
| C[C@@]12CC[C@@](O)(CO)[C@@H](C1)[C@@]1(C)CCC[C@@]21C | = | 64 |
| NC[C@H]1O[C@H](O[C@H]2[C@H](O)[C@@H](O[C@H]3O[C@H](CO)[C@@H](O)[C@H](N)[C@H]3O)[C@H](N)C[C@@H]2N)[C@H](O)[C@@H](O)[C@@H]1O | = | 1 |
| C[C@H](C[C@@H](O)[C@H](O)C(C)(C)O)[C@H]1CC[C@@](C)(O)[C@@H](O)C1 | = | 64 |
| COc1cc2c(c(O)c1OC)CO[C@](C)(O)C2=O | > | 256 |
| CC[C@H](O)[C@H](O)C[C@H](C)O | > | 256 |
| C[C@]12CCC[C@@]1(C)[C@@H]1C[C@@]2(C)[C@H](O)C[C@@]1(O)CO | = | 2 |
| C/C=C/C[C@H](CO)[C@H](O)[C@H](C)O | > | 256 |

All values here come from ChEMBL document CHEMBL5120790.
